B1: Chromodomain-helicase-DNA-binding protein 4, residues 365 to 417; numbered along this chain, Q14839 (parent)
chain: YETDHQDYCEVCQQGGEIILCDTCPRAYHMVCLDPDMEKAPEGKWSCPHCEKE

Variants of: B1
Test: abundance fitness (aPCA) (normalised: wild type 0, dead -1); higher = more abundant; growth selection in yeast, the domain comes from the species named
Settings: Homo sapiens
Rule: 1 for abundance fitness not less than -0.1, -1 for anything less.

variant_name=I19K label=1
variant_name=D36V label=1
variant_name=H49D label=-1
variant_name=D4G label=1
variant_name=Y8F label=1
variant_name=M30L label=-1
variant_name=H5N label=1
variant_name=C32G label=-1
variant_name=T23I label=-1
variant_name=A27Q label=-1
variant_name=T3D label=1
variant_name=M37L label=1
variant_name=C50I label=-1
variant_name=E17M label=-1
variant_name=K44R label=1
variant_name=C24D label=-1
variant_name=A27T label=1
variant_name=K39G label=1
variant_name=H29S label=-1
variant_name=K44I label=-1
variant_name=E2P label=1
variant_name=G16N label=1
variant_name=E51Q label=-1
variant_name=E51N label=-1
variant_name=T23S label=1
variant_name=W45E label=1
variant_name=E42T label=1
variant_name=E10S label=1
variant_name=S46A label=-1
variant_name=G43A label=1
variant_name=E42P label=1
variant_name=P35N label=1
variant_name=H49I label=-1
variant_name=Y8T label=1
variant_name=A40S label=-1
variant_name=S46E label=1
variant_name=I18C label=-1
variant_name=T23C label=-1
variant_name=P35E label=-1
variant_name=M30F label=-1
variant_name=K39I label=-1
variant_name=P48M label=1
variant_name=Q13H label=-1
variant_name=K44L label=-1
variant_name=D22I label=1
